molecular target: thrombospondin binding to sulfatide; assay: Inhibition of 125I-thrombospondin binding to sulfatide; settings: Table 1, free peptide
Peptide text beside a SMILES is read from it.
Measured Parameter: pIC50
Scale: pIC50 equals -log10([C]), with [C] in mol/L.

Sample answers from the record:
C[C@@H](O)[C@H](NC(=O)[C@H](CO)NC(=O)[C@H](CS)NC(=O)[C@H](CO)NC(=O)[C@@H](NC(=O)[C@H](Cc1c[nH]c2ccccc12)NC(=O)[C@H](CCC(=O)O)NC(=O)[C@H](CO)NC(=O)[C@H](Cc1c[nH]c2ccccc12)NC(=O)[C@@H]1CCCN1C(=O)[C@@H](N)CO)[C@@H](C)O)C(=O)N[C@@H](CO)C(=O)O [Peptide 184, SPWSEWTSCSTS] (H-SPWSEWTSCSTS-OH) ... 4.85
N[C@@H](Cc1c[nH]c2ccccc12)C(=O)N[C@@H](CO)C(=O)N1CCC[C@H]1C(=O)N[C@@H](Cc1c[nH]c2ccccc12)C(=O)N[C@@H](CO)C(=O)N[C@@H](CO)C(=O)N[C@@H](CS)C(=O)N[C@@H](CO)C(=O)O [Peptide 240, WSPWSSCS] (H-WSPWSSCS-OH) ... 4.00

Continue with the next compound.
Query string: Return pIC50 (reported value) for this compound: N[C@@H](CO)C(=O)N[C@@H](Cc1c[nH]cn1)C(=O)N[C@@H](Cc1c[nH]c2ccccc12)C(=O)N[C@@H](CO)C(=O)N1CCC[C@H]1C(=O)N[C@@H](Cc1c[nH]c2ccccc12)C(=O)N[C@@H](CO)C(=O)N[C@@H](CO)C(=O)O [Peptide 239, SHWSPWSS] (H-SHWSPWSS-OH)
Result string: 5.00
